Target: human MetAP2 enzyme (Homo sapiens, UniProt P50579)
Sequence (P50579 whole entry): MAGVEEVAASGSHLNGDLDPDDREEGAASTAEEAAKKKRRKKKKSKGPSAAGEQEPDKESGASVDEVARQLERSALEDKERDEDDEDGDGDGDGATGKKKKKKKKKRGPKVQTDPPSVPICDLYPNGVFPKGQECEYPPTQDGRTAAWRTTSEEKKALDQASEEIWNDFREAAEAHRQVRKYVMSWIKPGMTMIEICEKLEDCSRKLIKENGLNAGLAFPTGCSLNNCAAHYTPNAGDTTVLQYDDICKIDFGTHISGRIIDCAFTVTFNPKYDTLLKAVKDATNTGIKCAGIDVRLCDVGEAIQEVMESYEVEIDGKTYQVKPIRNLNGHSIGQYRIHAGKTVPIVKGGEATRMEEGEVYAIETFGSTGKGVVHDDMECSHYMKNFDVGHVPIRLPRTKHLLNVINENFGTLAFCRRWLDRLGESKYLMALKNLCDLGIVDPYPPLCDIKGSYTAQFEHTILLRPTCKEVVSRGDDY
Assay: MetAP2 enzyme assay, enzyme complexed with manganese ions
Conditions: MetAP2 Mn pIC50, MetAP2 enzyme complexed with manganese ions; Met-AMC substrate at Km
pIC50: −log10 of the molar value.
Decision: pIC50 >= 8 yields Satisfied, all other cases yield Not satisfied.

Check out these entries, answers already filled in.
# structure, target entity, group
data = [
    ("Cn1ccnc1-c1cc(C(F)(F)F)cc2[nH]ncc12", "human MetAP2 enzyme (Homo sapiens, UniProt P50579)", "Not satisfied"),
    ("O=S(=O)(NCCO)c1ccc(-c2cc(C(F)(F)F)cc3[nH]ncc23)cn1", "human MetAP2 enzyme (Homo sapiens, UniProt P50579)", "Satisfied"),
    ("Nc1ccc(-c2cc(C(F)(F)F)cc3[nH]ncc23)cn1", "human MetAP2 enzyme (Homo sapiens, UniProt P50579)", "Satisfied"),
    ("Cc1nc(N)nc(C)c1-c1cc(C(F)(F)F)cc2[nH]ncc12", "human MetAP2 enzyme (Homo sapiens, UniProt P50579)", "Not satisfied"),
    ("CCN(CC)C(=O)c1cccc(-c2cc(C(F)(F)F)cc3[nH]ncc23)c1", "human MetAP2 enzyme (Homo sapiens, UniProt P50579)", "Not satisfied"),
    ("NC(=O)c1ccccc1-c1cc(C(F)(F)F)cc2[nH]ncc12", "human MetAP2 enzyme (Homo sapiens, UniProt P50579)", "Not satisfied"),
    ("CNC(=O)c1ccc(-c2cc(C(F)(F)F)cc3[nH]ncc23)cn1", "human MetAP2 enzyme (Homo sapiens, UniProt P50579)", "Satisfied"),
    ("COc1ccc(C(=O)N2CCN(C)C(=O)C2)cc1-c1cc(C(F)(F)F)cc2[nH]ncc12", "human MetAP2 enzyme (Homo sapiens, UniProt P50579)", "Not satisfied"),
]

// switching to the query molecule
API: above_or_equal(metric=pIC50, cutoff=8) for item COc1ccc(-c2cc(C(F)(F)F)cc3[nH]ncc23)c(CO)c1
Satisfied
